assay overview: mn = molality of the nth substance listed, in mol/kg
conditions: 323.15 K; 101.3 kPa; Liquid; m2 = 0

| compound | mass density (kg/m3) |
| --- | --- |
| CN(C)C=O [dimethylformamide] + [Mn+2].[O-][Cl+3]([O-])([O-])[O-].[O-][Cl+3]([O-])([O-])[O-] | 919.807 |
| CN(C)C=O [dimethylformamide] + [Co+2].[O-][Cl+3]([O-])([O-])[O-].[O-][Cl+3]([O-])([O-])[O-] | 919.9 |
| CN(C)C=O [dimethylformamide] + [O-][Cl+3]([O-])([O-])[O-].[O-][Cl+3]([O-])([O-])[O-].[Zn+2] | 919.9 |
| CN(C)C=O [dimethylformamide] + [Ni+2].[O-][Cl+3]([O-])([O-])[O-].[O-][Cl+3]([O-])([O-])[O-] | 919.9 |
| CN(C)C=O [dimethylformamide] + [Cu+2].[O-][Cl+3]([O-])([O-])[O-].[O-][Cl+3]([O-])([O-])[O-] | 919.807 |

---

// values below are reported mass density
assay overview: mn = molality of the nth substance listed, in mol/kg
conditions: 293.15 K; 101.3 kPa; Liquid; m2 = 0

| compound | mass density [kg/m3] |
| --- | --- |
| CN(C)C=O [dimethylformamide] + [Cu+2].[O-][Cl+3]([O-])([O-])[O-].[O-][Cl+3]([O-])([O-])[O-] | 948.565 |
| CN(C)C=O [dimethylformamide] + [Ni+2].[O-][Cl+3]([O-])([O-])[O-].[O-][Cl+3]([O-])([O-])[O-] | 948.653 |
| CN(C)C=O [dimethylformamide] + [O-][Cl+3]([O-])([O-])[O-].[O-][Cl+3]([O-])([O-])[O-].[Zn+2] | 948.653 |
| CN(C)C=O [dimethylformamide] + [Co+2].[O-][Cl+3]([O-])([O-])[O-].[O-][Cl+3]([O-])([O-])[O-] | 948.653 |
| CN(C)C=O [dimethylformamide] + [Mn+2].[O-][Cl+3]([O-])([O-])[O-].[O-][Cl+3]([O-])([O-])[O-] | 948.565 |

---

assay overview: mn = molality of the nth substance listed, in mol/kg
conditions: 283.15 K; 101.3 kPa; Liquid; m2 = 0
// reported mass density for each item listed

| compound | mass density (kg/m3) |
| --- | --- |
| CN(C)C=O [dimethylformamide] + [Cu+2].[O-][Cl+3]([O-])([O-])[O-].[O-][Cl+3]([O-])([O-])[O-] | 958.075 |
| CN(C)C=O [dimethylformamide] + [Mn+2].[O-][Cl+3]([O-])([O-])[O-].[O-][Cl+3]([O-])([O-])[O-] | 958.077 |
| CN(C)C=O [dimethylformamide] + [Co+2].[O-][Cl+3]([O-])([O-])[O-].[O-][Cl+3]([O-])([O-])[O-] | 958.163 |
| CN(C)C=O [dimethylformamide] + [Ni+2].[O-][Cl+3]([O-])([O-])[O-].[O-][Cl+3]([O-])([O-])[O-] | 958.163 |
| CN(C)C=O [dimethylformamide] + [O-][Cl+3]([O-])([O-])[O-].[O-][Cl+3]([O-])([O-])[O-].[Zn+2] | 958.163 |
